# target: proteasome subunit β5 (beta5) (Homo sapiens, UniProt P28074)
# Construct: Lysate from the human acute lymphoblastic leukemia cell line, MOLT-4; endogenous in cells; host or cells: MOLT-4
# assay-text: Proteasome active-site ELISA (ProCISE), beta5, MOLT-4 lysate
# Assay type: biochemical
# study-conditions: MOLT4 lysate, human, 1 h continuous treatment, 25° C.
pIC50: −log10 of the molar value.
property-name: pIC50

See these solved cases before continuing.
COc1ccc(C[C@H](NC(=O)[C@H](C)NC(=O)CN2CCOCC2)C(=O)N[C@@H](CC2=CCCC2)C(=O)[C@H]2CO2)cc1 [Compound C-1038]	6.54
COc1ccc(C[C@H](NC(=O)[C@@H](C)NC(=O)C2CCOCC2)C(=O)N[C@@H](CC2CCCC2)C(=O)[C@@]2(C)CO2)cc1 [Compound C-1028]	6.09
COc1ccc(C[C@H](NC(=O)[C@@H](C)NC(=O)[C@H]2CC[C@@H](O)CC2)C(=O)N[C@@H](CC2=CCCCC2)C(=O)[C@@]2(C)CO2)cc1 [Compound C-1097]	6.49

1 = C[C@@H](NC(=O)[C@H]1CC[C@H](O)CC1)C(=O)N[C@@H](Cc1ccc(S(C)(=O)=O)cc1)C(=O)N[C@@H](CC1=CCCC1)C(=O)[C@@]1(C)CO1 [Compound C-1096]
2 = COc1ccc(C[C@H](NC(=O)[C@@H](C)NC(=O)C2CCOCC2)C(=O)N[C@@H](CC2=CCCC2)C(=O)[C@@]2(C)CO2)cc1O [Compound C-1062]
3 = COc1ccc(C[C@H](NC(=O)[C@H](CO)NC(=O)CN2CCOCC2)C(=O)N[C@@H](CC2=CCCCC2)C(=O)[C@@]2(C)CO2)cc1O [Compound C-1109]
Endpoint returns the given compounds ordered by ascending pIC50. Lab note: record answer as labels in requested order.
3, 1, 2

====

# target: immunoproteasome subunit LMP7 (Homo sapiens, UniProt P28062)
# Construct: Lysate from the human acute lymphoblastic leukemia cell line, MOLT-4; endogenous in cells; host or cells: MOLT-4
# assay-text: Proteasome active-site ELISA (ProCISE), LMP7, MOLT-4 lysate
# Format: biochemical
# study-conditions: MOLT4 lysate, 1 h continuous treatment, 25° C.
property-name: IC50 (nM)

See these solved cases before continuing.
COc1ccc([C@@H](O)[C@H](NC(=O)[C@@H](C)NC(=O)[C@H]2CC[C@H](O)CC2)C(=O)N[C@@H](CC2=CCCC2)C(=O)[C@@]2(C)CO2)cc1	25.2
COc1ccc(C[C@H](NC(=O)[C@@H](CO)NC(=O)[C@H]2CC[C@H](O)CC2)C(=O)N[C@@H](CC2=CCCC2)C(=O)[C@@]2(C)CO2)cc1	29.3
COc1ccc(C[C@H](NC(=O)[C@@H](C)NC(=O)[C@H]2CC[C@H](O)CC2)C(=O)N[C@@H](CC2CC=CC2)C(=O)[C@@]2(C)CO2)cc1	26.2

I = COc1ccc([C@@H](O)[C@H](NC(=O)[C@H](C)NC(=O)CN2CCOCC2)C(=O)N[C@@H](CC2=CCCC2)C(=O)[C@@]2(C)CO2)cc1
II = COc1ccc(C[C@H](NC(=O)[C@@H](C)NC(=O)C2CC(=O)C2)C(=O)N[C@@H](CC2CCCC2)C(=O)[C@@]2(C)CO2)cc1
Looking at recorded values for IC50, does I or II come in lower? Returns: label corresponding to the selected item.
I
(I: 40.3 nM, II: 303 nM)
